cytotoxicity at 48 h, 100 µM overview
assay.summary: Cytotoxicity against human L02 cells assessed as inhibitory ratio at 100 uM after 48 hrs by MTT assay
Assay type: cell-based
recorded.conditions: read-out: INH
Could you give me the number in %? Just the number is fine.

Look over these answered cases.
{"molecule": "COc1ccc(OC)c(-c2nc(=O)ss2)c1", "quantity.kind": "cytotoxicity at 48 h, 100 µM", "recorded.number": 23.7}
{"molecule": "Cc1ccccc1-c1nc(=O)ss1", "quantity.kind": "cytotoxicity at 48 h, 100 µM", "recorded.number": 18.6}
{"molecule": "Cc1ccccc1-c1nsc(=O)o1", "quantity.kind": "cytotoxicity at 48 h, 100 µM", "recorded.number": 18.1}
{"molecule": "Cc1sc(-c2nsc(=O)o2)cc1[N+](=O)[O-]", "quantity.kind": "cytotoxicity at 48 h, 100 µM", "recorded.number": 53.8}
{"molecule": "Nc1ccc(-c2nc(=O)ss2)cc1", "quantity.kind": "cytotoxicity at 48 h, 100 µM", "recorded.number": 46.3}
{"molecule": "Cc1ccc(-c2nsc(=O)o2)s1", "quantity.kind": "cytotoxicity at 48 h, 100 µM", "recorded.number": 25.1}

Q. Using the record for "O=c1oc(-c2ccccc2[N+](=O)[O-])ns1" , report its cytotoxicity at 48 h, 100 µM.
A. 32.4

Q. Then "Cc1ccc(-c2nc(=O)ss2)s1" ?
A. 36.3

Q. Then "COc1cccc(-c2nc(=O)ss2)c1" ?
A. 38.6

Q. Then "O=c1nc(-c2ccccc2Cl)ss1" ?
A. 40.1

Q. Then "O=c1oc(-c2cccnc2Cl)ns1" ?
A. 31.4

Q. Then "O=c1oc(-c2cc(F)c(Cl)nc2Cl)ns1" ?
A. 15.1

Q. Then "O=c1oc(-c2ccc3ccccc3c2)ns1" ?
A. 26.2

Q. Then "O=c1nc(-c2ccc3ccccc3c2)ss1" ?
A. 47.2

Q. Then "O=c1oc(-c2ccc(Cl)cc2)ns1" ?
A. 39.6

###

assay.summary: Cytotoxicity against human L02 cells assessed as inhibitory ratio at 100 uM after 48 hrs by MTT assay
Format: cell-based
recorded.conditions: read-out: INH
cytotoxicity at 48 h, 100 µM overview

Look over these answered cases.
{"molecule": "O=c1oc(-c2ccccc2Cl)ns1", "cytotoxicity at 48 h, 100 µM": "20.6%"}
{"molecule": "COc1ccc(OC)c(-c2nsc(=O)o2)c1", "cytotoxicity at 48 h, 100 µM": "25.3%"}
{"molecule": "O=c1oc(-c2ccc([N+](=O)[O-])cc2Cl)ns1", "cytotoxicity at 48 h, 100 µM": "54.6%"}
{"molecule": "O=c1nc(-c2cc(F)c(Cl)nc2Cl)ss1", "cytotoxicity at 48 h, 100 µM": "24.3%"}
{"molecule": "O=c1nc(-c2ccc([N+](=O)[O-])cc2Cl)ss1", "cytotoxicity at 48 h, 100 µM": "28.6%"}

Q. Using the record for "COc1cccc(-c2nsc(=O)o2)c1" , report its cytotoxicity at 48 h, 100 µM.
A. 15%

Q. Then "O=c1oc(-c2ccc(F)cc2)ns1" ?
A. 21.7%

Q. Then "O=c1nc(-c2ccc(Cl)cc2)ss1" ?
A. 46%

Q. Then "O=c1nc(-c2cccnc2Cl)ss1" ?
A. 34.4%

Q. Then "O=c1nc(-c2ccc(F)cc2)ss1" ?
A. 33.7%

Q. Then "O=c1nc(-c2cnccn2)ss1" ?
A. 56.7%

Q. Then "O=c1oc(-c2cnccn2)ns1" ?
A. 31.4%

Q. Then "O=c1nc(-c2ccccc2[N+](=O)[O-])ss1" ?
A. 33%

Q. Then "Nc1ccc(-c2nsc(=O)o2)cc1" ?
A. 39.5%
